Cited source for all entries: ChEMBL document CHEMBL3400073

Test system: Mus musculus
assayDetails: Anticonvulsant activity in intraperitoneally dosed Albino Swiss CD1 mouse after 0.5 hrs by subcutaneous pentylenetetrazole test
Assay type: functional
For each of the compounds below, state its MED50.
// note: answer is a bare numeric in mg/kg

Incoming: Could you share what MED50 was measured for CCC(C(=O)NCc1cccc(C(F)(F)F)c1)N1C(=O)CCC1=O (racemic) , tested on Mus musculus?
Outgoing: 100

Incoming: Notebook entry, Mus musculus assay: MED50 of CCC(C(=O)NCc1cccc(Cl)c1)N1C(=O)CCC1=O (racemic) = ?
Outgoing: 100

Incoming: Report MED50 for CC(C(=O)NCc1ccc(Cl)cc1)N1C(=O)CCC1=O (racemic) tested on Mus musculus.
Outgoing: 100

---

Test system: Mus musculus
assayDetails: Anticonvulsant activity in intraperitoneally dosed Albino Swiss CD1 mouse after 0.5 hrs by maximal electroshock test
Type: functional
outcomeMeasure: MED50
Phrase the answer as number then unit, nothing more needed.

Incoming: // MED50 lookup, key: CC(C(=O)NCc1cccc(C(F)(F)F)c1)N1C(=O)CCC1=O (racemic)
Outgoing: 100 mg/kg

Incoming: # MED50 lookup, item CC(C(=O)NCc1ccc(C(F)(F)F)cc1)N1C(=O)CCC1=O (racemic)
Outgoing: 100 mg/kg

Incoming: Need MED50 of CC(C(=O)NCc1ccccc1F)N1C(=O)CCC1=O (racemic) , thanks.
Outgoing: 100 mg/kg

Incoming: Look at this molecule and give its reported MED50. CC1CC(=O)N(C(C)C(=O)NCc2ccccc2F)C1=O (racemic)
Outgoing: 100 mg/kg

Incoming: Query: MED50; subject: CC(C(=O)NCc1ccccc1)N1C(=O)CCC1=O (racemic)
Outgoing: 100 mg/kg

Incoming: Give its MED50 value. Item: CC(C(=O)NCc1cccc(Cl)c1)N1C(=O)CCC1=O (racemic)
Outgoing: 100 mg/kg

Incoming: Need MED50 of CC(C(=O)NCc1ccc(Cl)cc1)N1C(=O)CCC1=O (racemic) , thanks.
Outgoing: 100 mg/kg

Incoming: Need MED50, item CCC(C(=O)NCc1cccc(Cl)c1)N1C(=O)CCC1=O (racemic)
Outgoing: 100 mg/kg

Incoming: What MED50 value was documented for this molecule, CCC(C(=O)NCc1ccc(C(F)(F)F)cc1)N1C(=O)CCC1=O (racemic) ?
Outgoing: 100 mg/kg

Incoming: For CCC(C(=O)NCc1ccccc1Cl)N1C(=O)CCC1=O (racemic) , what is its reported MED50?
Outgoing: 100 mg/kg

---

assayDetails: Neurological toxicity in intraperitoneally dosed Albino Swiss CD1 mouse by rotarod test
Assay type: organism-based
conditionContext: in vivo, ip
outcomeMeasure: TD50

Incoming: Value lookup for TD50; key = CC1CC(=O)N(C(C)C(=O)NCc2cccc(Cl)c2)C1=O (racemic)
Outgoing: 247 mg/kg

Incoming: # query: TD50 of entry CCC(C(=O)NCc1cccc(Cl)c1)N1C(=O)CCC1=O (racemic)
Outgoing: 180 mg/kg

Incoming: // TD50 lookup, key: CC(C(=O)NCc1cccc(C(F)(F)F)c1)N1C(=O)CCC1=O (racemic)
Outgoing: 332 mg/kg

Incoming: Using the record for NC(=O)N1c2ccccc2C=Cc2ccccc21 [CARBAMAZEPINE] , report its TD50.
Outgoing: 49.3 mg/kg

Incoming: Tell me the measured TD50 of CCC(C(=O)NCc1ccccc1Cl)N1C(=O)CCC1=O (racemic) , please.
Outgoing: 418 mg/kg

Incoming: // query TD50 value for entry CCC(C(=O)NCc1ccc(C(F)(F)F)cc1)N1C(=O)CCC1=O (racemic)
Outgoing: 112 mg/kg

Incoming: Tell me the measured TD50 of CCC(C(=O)NCc1ccc(Cl)cc1)N1C(=O)CCC1=O (racemic) , please.
Outgoing: 174 mg/kg

Incoming: State the recorded TD50 for this entry: CC1CC(=O)N(C(C)C(=O)NCc2ccccc2)C1=O (racemic)
Outgoing: 355 mg/kg

Incoming: Any idea what TD50 was measured for CCC(C(=O)NCc1ccc(F)cc1)N1C(=O)CCC1=O (racemic) ?
Outgoing: 268 mg/kg

Incoming: I would be grateful if you could share the reported TD50 for CC1CC(=O)N(C(C)C(=O)NCc2cccc(F)c2)C1=O (racemic) .
Outgoing: 297 mg/kg

Incoming: What measured TD50 goes with CCC(C(=O)NCc1ccccc1)N1C(=O)CCC1=O (racemic) ?
Outgoing: 312 mg/kg

Incoming: Please look up its TD50: CC(C(=O)NCc1ccc(C(F)(F)F)cc1)N1C(=O)CCC1=O (racemic)
Outgoing: 143 mg/kg

Incoming: Item CCC(C(=O)NCc1cccc(F)c1)N1C(=O)CCC1=O (racemic) has what recorded TD50?
Outgoing: 327 mg/kg

Incoming: Please report the recorded TD50 for CC1CC(=O)N(C(C)C(=O)NCc2ccccc2Cl)C1=O (racemic) .
Outgoing: 275 mg/kg

Incoming: Request the reported TD50 associated with CC1CC(=O)N(C(C)C(=O)NCc2ccccc2F)C1=O (racemic)
Outgoing: 239 mg/kg

Incoming: Which TD50 value is on record for CC(C(=O)NCc1cccc(F)c1)N1C(=O)CCC1=O (racemic) ?
Outgoing: > 500 mg/kg

Incoming: // TD50 lookup, key: CC(C(=O)NCc1ccccc1Cl)N1C(=O)CCC1=O (racemic)
Outgoing: 340 mg/kg

Incoming: // returns reported TD50 for input CCC(C(=O)NCc1ccccc1F)N1C(=O)CCC1=O (racemic)
Outgoing: 346 mg/kg

Incoming: What TD50 value was documented for this compound, CC(C(=O)NCc1cccc(Cl)c1)N1C(=O)CCC1=O (racemic) ?
Outgoing: 347 mg/kg

Incoming: // returns reported TD50 for input CCC(C(=O)NCc1cccc(C(F)(F)F)c1)N1C(=O)CCC1=O (racemic)
Outgoing: 163 mg/kg

Incoming: Need TD50, item CC(C(=O)NCc1ccc(Cl)cc1)N1C(=O)CCC1=O (racemic)
Outgoing: 228 mg/kg

---

System: Mus musculus
assayDetails: Anticonvulsant activity in intraperitoneally dosed Albino Swiss CD1 mouse after 0.5 hrs by subcutaneous pentylenetetrazole test
Type: functional
Please respond with reported MED50 for every item in the list.
Just the number please, in mg/kg, no unit attached.

Incoming: Query MED50 on Mus musculus for CC(C(=O)NCc1ccccc1F)N1C(=O)CCC1=O (racemic)
Outgoing: 100

Incoming: Notebook entry, Mus musculus assay: MED50 of CCC(C(=O)NCc1ccc(Cl)cc1)N1C(=O)CCC1=O (racemic) = ?
Outgoing: 100

Incoming: // map CCC(C(=O)NCc1ccccc1F)N1C(=O)CCC1=O (racemic) to recorded MED50 (system: Mus musculus)
Outgoing: 100

Incoming: Return MED50 measured with Mus musculus given this compound: CCC(C(=O)NCc1ccccc1)N1C(=O)CCC1=O (racemic)
Outgoing: 100

Incoming: Query MED50 on Mus musculus for CC(C(=O)NCc1ccccc1)N1C(=O)CCC1=O (racemic)
Outgoing: 100

Incoming: Identify the measured MED50 of CC1CC(=O)N(C(C)C(=O)NCc2ccccc2)C1=O (racemic) for Mus musculus.
Outgoing: 100

Incoming: Value wanted: MED50 (Mus musculus) of entry CCC(C(=O)NCc1cccc(F)c1)N1C(=O)CCC1=O (racemic)
Outgoing: 100

Incoming: Please tell me: MED50 of CCC(C(=O)NCc1ccc(F)cc1)N1C(=O)CCC1=O (racemic) , system Mus musculus?
Outgoing: 100

Incoming: Item CCC(C(=O)NCc1ccc(C(F)(F)F)cc1)N1C(=O)CCC1=O (racemic) with Mus musculus - MED50?
Outgoing: 100

Incoming: Notebook entry, Mus musculus assay: MED50 of CCC(C(=O)NCc1ccccc1Cl)N1C(=O)CCC1=O (racemic) = ?
Outgoing: 100

---

Species: Mus musculus
assayDetails: Protective index, ratio of neurotoxic TD50 in Albino Swiss CD1 mouse by rotarod test to anticonvulsant ED50 in Albino Swiss CD1 mouse by maximal electroshock test
Please go through the items and note down their Ratio TD50/ED50.
Field format: numeric only.

Incoming: Give its Ratio TD50/ED50 value. Item: CC1CC(=O)N(C(C)C(=O)NCc2ccccc2F)C1=O (racemic)
Outgoing: 2.97

Incoming: // Ratio TD50/ED50 lookup, key: CCC(C(=O)NCc1cccc(Cl)c1)N1C(=O)CCC1=O (racemic)
Outgoing: 1.12

Incoming: Item under review: CCC(C(=O)NCc1ccc(C(F)(F)F)cc1)N1C(=O)CCC1=O (racemic) . Reported Ratio TD50/ED50?
Outgoing: 1.62

Incoming: Param item = NC(=O)N1c2ccccc2C=Cc2ccccc21 [CARBAMAZEPINE] ; retrieve measured Ratio TD50/ED50.
Outgoing: 3.47

Incoming: Given the entry CC1CC(=O)N(C(C)C(=O)NCc2ccccc2)C1=O (racemic) , report its measured Ratio TD50/ED50.
Outgoing: 3.34

Incoming: Would you kindly share the measured Ratio TD50/ED50 for CCC(C(=O)NCc1ccccc1)N1C(=O)CCC1=O (racemic) ?
Outgoing: 4.26

Incoming: Entry under review: CC(C(=O)NCc1ccc(C(F)(F)F)cc1)N1C(=O)CCC1=O (racemic) . Reported Ratio TD50/ED50?
Outgoing: 1.78

Incoming: Return reported Ratio TD50/ED50; argument: CC1CC(=O)N(C(C)C(=O)NCc2ccccc2Cl)C1=O (racemic)
Outgoing: 3.2

Incoming: Bench note: what Ratio TD50/ED50 did CC1CC(=O)N(C(C)C(=O)NCc2cccc(Cl)c2)C1=O (racemic) show?
Outgoing: 2.73

Incoming: What value of Ratio TD50/ED50 has been reported for the following compound? CC(C(=O)NCc1cccc(C(F)(F)F)c1)N1C(=O)CCC1=O (racemic)
Outgoing: 3.59

Incoming: Which Ratio TD50/ED50 value is on record for CCC(C(=O)NCc1ccccc1Cl)N1C(=O)CCC1=O (racemic) ?
Outgoing: 3.7

Incoming: Fill blank: measured Ratio TD50/ED50 of the compound CC(C(=O)NCc1cccc(Cl)c1)N1C(=O)CCC1=O (racemic) is ____.
Outgoing: 4.23

Incoming: Requested read-out: Ratio TD50/ED50. Entry: CCC(C(=O)NCc1ccc(Cl)cc1)N1C(=O)CCC1=O (racemic)
Outgoing: 1.83

Incoming: Report Ratio TD50/ED50 for CC(C(=O)NCc1ccccc1Cl)N1C(=O)CCC1=O (racemic) please.
Outgoing: 4.57

Incoming: Which Ratio TD50/ED50 is reported for this compound? CC(C(=O)NCc1ccc(Cl)cc1)N1C(=O)CCC1=O (racemic)
Outgoing: 2.48

Incoming: Can you look up the measured Ratio TD50/ED50 of CC1CC(=O)N(C(C)C(=O)NCc2cccc(F)c2)C1=O (racemic) for me?
Outgoing: 2.29
